Entries annotated with measured hERG current change (%, negative = inhibition) at 1uM
- SYSTEM_TESTED: human ether-à-go-go-related gene (hERG) potassium channel (human)
- Sequence (Q12809 whole entry, looked up): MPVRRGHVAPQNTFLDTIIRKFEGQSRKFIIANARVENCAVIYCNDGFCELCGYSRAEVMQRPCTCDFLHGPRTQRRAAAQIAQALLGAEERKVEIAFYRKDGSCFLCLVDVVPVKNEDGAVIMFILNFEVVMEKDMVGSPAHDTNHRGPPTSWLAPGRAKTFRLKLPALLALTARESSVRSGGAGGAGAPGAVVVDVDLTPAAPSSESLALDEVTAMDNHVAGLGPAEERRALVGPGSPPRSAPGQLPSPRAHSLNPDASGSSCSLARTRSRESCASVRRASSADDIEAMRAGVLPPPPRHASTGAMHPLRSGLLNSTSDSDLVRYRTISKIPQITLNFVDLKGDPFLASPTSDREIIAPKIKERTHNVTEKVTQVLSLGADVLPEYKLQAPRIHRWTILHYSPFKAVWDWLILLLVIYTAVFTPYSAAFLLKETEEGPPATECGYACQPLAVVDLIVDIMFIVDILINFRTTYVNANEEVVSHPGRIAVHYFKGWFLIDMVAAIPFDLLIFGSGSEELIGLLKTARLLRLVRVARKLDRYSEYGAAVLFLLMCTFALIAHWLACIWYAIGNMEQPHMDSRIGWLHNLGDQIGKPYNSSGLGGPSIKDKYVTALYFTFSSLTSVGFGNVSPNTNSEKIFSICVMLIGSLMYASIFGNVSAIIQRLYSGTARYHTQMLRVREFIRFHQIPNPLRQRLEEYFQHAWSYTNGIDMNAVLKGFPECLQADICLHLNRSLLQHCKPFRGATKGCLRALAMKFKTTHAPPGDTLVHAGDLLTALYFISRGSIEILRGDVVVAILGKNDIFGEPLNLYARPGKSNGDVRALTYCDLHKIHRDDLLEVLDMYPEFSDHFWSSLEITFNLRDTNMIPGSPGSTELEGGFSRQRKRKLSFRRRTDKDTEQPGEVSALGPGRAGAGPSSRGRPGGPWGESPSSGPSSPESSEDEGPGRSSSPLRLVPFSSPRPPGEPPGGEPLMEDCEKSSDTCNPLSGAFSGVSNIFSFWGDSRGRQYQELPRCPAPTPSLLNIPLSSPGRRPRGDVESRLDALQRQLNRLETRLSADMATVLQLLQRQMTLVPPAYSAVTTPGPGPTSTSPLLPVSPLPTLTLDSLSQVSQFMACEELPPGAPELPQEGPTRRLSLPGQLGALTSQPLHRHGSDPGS
- MEASUREMENT_NOTES: primary screen, population patch clamp on CHO cells stably expressing hERG; higher = less effect of the substance
About 2,200 (0.71%) of roughly 310,000 compounds showed an effect of 50% or more. The effect is printed as a negative number. Only a selection was taken, and strong results are over-represented in it overall.
All answers are understood in %, so give the number only.

Worked examples follow.
Q) Fill blank: measured hERG current change (%, negative = inhibition) at 1uM of the molecule OCC[N+]12CCC(CC1)C(C(O)(c1ccccc1)c1ccccc1)C2 (stereo not drawn) is ____.
A) 15.2

Q) Which measured hERG current change (%, negative = inhibition) at 1uM value corresponds to `COc1ccccc1Nc1nc(N)nc(CN2CCC(Cc3ccccc3)CC2)n1` ?
A) -95.7

New cases:
Q) Entry under review: `COc1ccc(-c2cc(=[NH+]c3cccc(C(=O)O)c3)c3cc(C)ccc3o2)cc1.[O-][Cl+3]([O-])([O-])[O-]` . Reported hERG current change (%, negative = inhibition) at 1uM?
A) 6.72

Q) Form field: reported hERG current change (%, negative = inhibition) at 1uM of `F[B-](F)(F)F.OCCCCC[NH+]=c1cc(-c2ccccc2)oc2ccc(Cl)cc12`
A) -86.1

Q) Which value of hERG current change (%, negative = inhibition) at 1uM has been reported for `Cc1ccc(C(=O)N2CCN(CCNC(=O)C(=O)NC(C)C)CC2)cc1` in the records?
A) 7.95
